Test: BTK FAC plasma stability assay, cyno plasma
Format: in vitro ADME, cynomolgus monkey
Recorded Plasma stability (h) cyno by entry
Write the value in h as a bare number.

{"Compound smiles": "COc1ccc(C(=O)N2CCC3(CCN(CCc4ccc(-c5cc6c(-c7cc(F)cc(NC(=O)c8ccc(C(C)(C)OC(=O)CNC(=O)CCOCCOCCOCCOCCOCCOCCOCCOCCOCCOCCOCCOCCNC(C)=O)cc8F)c7C)ncnc6[nH]5)cc4)CC3)CC2)cc1N1CCC(=O)NC1=O", "Display unit": "h", "Plasma stability (h) cyno": 45.7}

Consider the record given below.
query: If you can, please state the reported Plasma stability (h) cyno value of COCCOCCOCCOCCOCCOCCOCCOCCOCCOCCOCCOCCC(=O)NCC(=O)OC(C)(C)c1ccc(C(=O)Nc2cc(F)cc(-c3ncnc4[nH]c(-c5ccc(CCN6CCC7(CC6)CCN(C(=O)c6ccc(OC)c(N8CCC(=O)NC8=O)c6)CC7)cc5)cc34)c2C)c(F)c1 .
result: 30.6
